# Assay system: binding partner (antigen) of C5A (XPA23)
# Test method notes: Biacore, K-off, fold vs original
Measured quantity: fold difference in affinity vs original (fold)
Numbers only, in fold.

Examples with their reported fold difference in affinity vs original follow.
binder="C5A (XPA23) VH F35A (antibody, V domains shown) VH: EVQLLESGGGLVQPGGSLRLSCAASGFTFSKYFMAWVRQAPGKGLEWVSVISPSGGMTRYADSVKGRFTISRDNSKNTLYLQMNSLRAEDTAVYYCARVGYGGNSDYWGQGTLVTVSS VL: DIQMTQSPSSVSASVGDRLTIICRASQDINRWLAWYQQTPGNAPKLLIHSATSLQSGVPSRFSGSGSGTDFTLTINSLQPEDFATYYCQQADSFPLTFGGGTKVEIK" result=0.07
binder="C5A (XPA23) VH S54F (antibody, V domains shown) VH: EVQLLESGGGLVQPGGSLRLSCAASGFTFSKYFMFWVRQAPGKGLEWVSVISPFGGMTRYADSVKGRFTISRDNSKNTLYLQMNSLRAEDTAVYYCARVGYGGNSDYWGQGTLVTVSS VL: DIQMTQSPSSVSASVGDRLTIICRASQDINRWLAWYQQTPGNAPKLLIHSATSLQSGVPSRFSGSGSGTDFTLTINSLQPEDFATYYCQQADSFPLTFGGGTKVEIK" result=0.87

Then this binder:
Recorded fold difference in affinity vs original (binder C5A (XPA23) VH V50I (antibody, V domains shown) VH: EVQLLESGGGLVQPGGSLRLSCAASGFTFSKYFMFWVRQAPGKGLEWVSIISPSGGMTRYADSVKGRFTISRDNSKNTLYLQMNSLRAEDTAVYYCARVGYGGNSDYWGQGTLVTVSS VL: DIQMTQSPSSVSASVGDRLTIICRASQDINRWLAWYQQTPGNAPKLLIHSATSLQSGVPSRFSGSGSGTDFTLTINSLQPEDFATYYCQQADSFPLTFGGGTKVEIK ): 0.1
